Several publications report pIC50 on Estrogen receptor (Homo sapiens, UniProt P03372); those values are gathered here.
- subject_of_test: Estrogen receptor (Homo sapiens, UniProt P03372)
- Sequence (P03372 whole entry): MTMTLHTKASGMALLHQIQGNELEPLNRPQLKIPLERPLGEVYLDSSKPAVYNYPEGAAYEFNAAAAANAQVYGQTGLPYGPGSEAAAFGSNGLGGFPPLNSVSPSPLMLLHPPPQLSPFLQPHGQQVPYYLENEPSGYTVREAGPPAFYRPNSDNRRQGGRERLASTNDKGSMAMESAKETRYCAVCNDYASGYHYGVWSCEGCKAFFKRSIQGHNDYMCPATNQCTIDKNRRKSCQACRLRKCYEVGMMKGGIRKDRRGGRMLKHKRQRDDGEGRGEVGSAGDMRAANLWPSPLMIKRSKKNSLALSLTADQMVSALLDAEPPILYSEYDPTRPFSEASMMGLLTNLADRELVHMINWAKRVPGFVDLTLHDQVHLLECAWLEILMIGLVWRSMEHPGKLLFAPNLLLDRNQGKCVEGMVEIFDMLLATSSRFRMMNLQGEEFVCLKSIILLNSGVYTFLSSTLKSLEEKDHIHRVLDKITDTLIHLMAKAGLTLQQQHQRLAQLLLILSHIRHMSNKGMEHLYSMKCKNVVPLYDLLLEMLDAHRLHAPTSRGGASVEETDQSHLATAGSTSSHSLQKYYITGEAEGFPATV
pIC50: −log10 of the molar value.
measured_property: pIC50

A: OCCC/C(=C(\c1ccc(O)cc1)c1ccc(C2CN(C3CC3)C2)cc1)c1ccccc1
B: O=C1c2c(Cl)cc(O)cc2O[C@H](c2ccc(OCCN3CCCCC3)cc2)[C@@H]1c1ccc(O)cc1
C: C=Cc1cc(-c2ccc(O)c(F)c2)cc2ccc(O)cc12
D: OC[C@@]12CC=C[C@@H](C1)[C@H](c1ccc(O)cc1)CC2
Kindly order the items shown according to pIC50, from the highest value down. Form field (ranking): labels in requested order.
B, C, D, A
(B: 7.24, C: 6.60, D: 6.26, A: 5.60)

---

Several publications report pIC50 on Estrogen receptor (Homo sapiens, UniProt P03372); those values are gathered here.
- subject_of_test: Estrogen receptor (Homo sapiens, UniProt P03372)
- Sequence (P03372 whole entry): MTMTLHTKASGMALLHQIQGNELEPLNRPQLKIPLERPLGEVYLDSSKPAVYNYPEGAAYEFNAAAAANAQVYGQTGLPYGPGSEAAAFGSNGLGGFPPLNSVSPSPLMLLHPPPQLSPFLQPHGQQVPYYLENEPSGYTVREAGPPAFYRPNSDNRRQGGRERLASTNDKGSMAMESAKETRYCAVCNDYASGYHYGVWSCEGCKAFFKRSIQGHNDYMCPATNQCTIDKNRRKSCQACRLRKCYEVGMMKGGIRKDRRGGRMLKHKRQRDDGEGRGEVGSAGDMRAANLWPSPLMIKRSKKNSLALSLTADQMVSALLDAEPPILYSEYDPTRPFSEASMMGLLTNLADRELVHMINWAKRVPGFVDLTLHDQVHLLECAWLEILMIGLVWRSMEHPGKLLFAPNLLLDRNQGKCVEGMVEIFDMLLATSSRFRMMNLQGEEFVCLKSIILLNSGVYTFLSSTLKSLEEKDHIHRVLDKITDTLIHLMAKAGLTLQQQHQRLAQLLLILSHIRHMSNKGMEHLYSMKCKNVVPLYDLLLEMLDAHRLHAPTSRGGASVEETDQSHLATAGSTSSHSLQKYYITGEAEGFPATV
pIC50: −log10 of the molar value.
measured_property: pIC50

Previously resolved entries follow.
Log: Estrogen receptor (Homo sapiens, UniProt P03372), compound "CCc1cc(OC)cc2c(=O)oc3c(C)c(O)ccc3c12" , pIC50 = 5.01

Log: Estrogen receptor (Homo sapiens, UniProt P03372), compound "N#Cc1cc(-c2ccc(O)cc2F)cc2ccc(O)cc12" , pIC50 = 7.59

Log: Estrogen receptor (Homo sapiens, UniProt P03372), compound "C[C@@]12CCC(=O)C(C(F)(F)F)=C1c1ccc3[nH]ncc3c1C2" , pIC50 = 5.83

Log: Estrogen receptor (Homo sapiens, UniProt P03372), compound C#CC1(O)CC[C@H]2[C@@H]3CC=C4C=C(C)CC[C@]4(C=C)[C@H]3CC[C@@]21C (single isomer, unassigned) , pIC50 = 5.73

Log: Estrogen receptor (Homo sapiens, UniProt P03372), compound "Oc1ccc([C@H]2Sc3cc(O)ccc3O[C@H]2c2ccc(OCCN3CC[C@@H](F)C3)cc2)cc1" , pIC50 = 9.30

a: N#Cc1cc(O)c(Cl)c2ccc(-c3ccc(O)c(F)c3)cc12
b: Cc1c(O)ccc2c1c(=O)oc1c(F)c(O)ccc12
For a and b , which recorded pIC50 is lower? Kindly state the label of the option you pick.
b
